Protocol Details: Inhibition of MAOA by spectrofluorimetry
pIC50: −log10 of the molar value.
As shown below, each of these compounds has a reported pIC50 value.
Metric Name: pIC50

structure=C/C(=N\Nc1nc2ccccc2nc1Cc1ccccc1)c1ccc(C)cc1 obs_value=7.07
structure=COc1ccccc1/C=N/Nc1nc2ccccc2nc1Cc1ccccc1 obs_value=7.08
structure=Clc1ccc(/C=N/Nc2nc3ccccc3nc2Cc2ccccc2)cc1 obs_value=7.12
structure=O=C(c1ccccc1)c1nc2ccccc2n2c(-c3ccccc3Cl)nnc12 obs_value=7.06
structure=C=NNc1nc2ccccc2nc1Cc1ccccc1 obs_value=7.07
structure=C/C(=N\Nc1nc2ccccc2nc1Cc1ccccc1)c1cccs1 obs_value=7.19
